assay: endothelial E-selectin expression blockers – imaging, HUVEC, immunofluorescence, MLSMR starter and 10KST1 sets, primary screen (AID 487); conditions: HUVEC TNFalpha-induced E-selectin immunofluorescence imaging, at 2 µM; measured here: cell number, toxicity;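 also: 100% = median nuclei count of all wells on the same plate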
Quick reference: nuclei count of the listed items.

| molecule | nuclei count / % |
| --- | --- |
| COc1ccc(C2(C(=O)Nc3cc(C)on3)CCOCC2)cc1 | 134 |
| COc1ccc(-n2nc3cc(C)c(N)c(Br)c3n2)cc1 | 83.5 |
| CC(C)OC(=O)C1C2C=CC3(CN(Cc4cccs4)C(=O)C13)O2 (configuration not stated) | 111 |
| COc1ccc(OC)c(NC(=O)CSc2ncccc2C(=O)O)c1 | 125 |
| COC1CCCCC1NS(=O)(=O)c1ccccc1 (configuration not stated) | 114 |
| CCC1c2ccc(C)n2CCN1C(=O)Nc1ccccc1OC (configuration not stated) | 116 |
| Clc1ccccc1OCCCCn1ccnc1 | 106 |
| Cc1ccc2c(c1)C(N1CCCC1=O)CC(c1ccco1)N2 (configuration not stated) | 106 |
| CCCCOc1ccccc1NC(=O)c1ccco1 | 122 |
| COc1ccc(C2C=C(c3ccccc3)Nc3ncnn32)cc1 (configuration not stated) | 110 |
| Cc1noc(NS(=O)(=O)c2ccc(N3C(=O)c4ccccc4C3=O)cc2)c1C | 93.6 |
| Cc1ccnc(N2CCN(C(=O)CSc3nc4ccccc4nc3N3CCCCC3)CC2)c1 | 100 |
| CCOC(=O)c1ccc(N2C(=O)C3CC=CCC3C2=O)cc1 (configuration not stated) | 101 |
| CCOC(=O)C1CCCN(S(=O)(=O)c2cccs2)C1 (configuration not stated) | 95.2 |
| Cc1cc(/C=N/n2cnnc2)c(C)n1-c1cccc(Cl)c1 | 46 |
| CC(C)c1cc(C(=O)Nc2cccnc2)no1 | 115 |
| CS(=O)(=O)N(CC(=O)Nc1cccc(F)c1)Cc1ccccc1 | 106 |
| COc1cccc(C2C(C(=O)c3cccs3)=C(O)C(=O)N2CCCn2ccnc2)c1OC (configuration not stated) | 106 |
| Cn1c(=O)c2c(nc(NCCCO)n2Cc2cccc(Br)c2)n(C)c1=O | 92.8 |
| O=C(CSc1nnc(C2COc3ccccc3O2)o1)N1CCCc2ccccc21 (configuration not stated) | 136 |
| O=C(Nc1cccc(OCC(=O)N2CCOCC2)c1)C1CCCCC1 | 94.2 |
| CCOC(=O)N1CCC(NC(=O)CCC(=O)N2CC(C)Oc3ccc(Cl)cc32)CC1 (configuration not stated) | 89 |
| COc1ccccc1OCC(=O)Nc1ccc(S(=O)(=O)Nc2nc(C)cc(C)n2)cc1 | 121 |
| COc1ccc(C(=O)COC(=O)CCn2nnc(-c3cccs3)n2)cc1 | 73.7 |
| COC(=O)c1cc(=O)n(Cc2ccc3c(c2)OCO3)c(=Nc2ccccc2)s1 | 107 |
| CCOc1ccc(NC(=O)c2ccncc2)cc1 | 106 |
| Cc1cc2c(c(=O)n1C)C(Cc1ccccc1)C(C#N)=C(N)O2 (configuration not stated) | 117 |
| O=C(Nc1cccnc1)Nc1ccc(F)c(Cl)c1 | 107 |
| Cc1c(=O)n(OCc2ccccn2)c2ccccc2[n+]1[O-] | 89.2 |
| COc1ccccc1-n1c(SCC(=O)NC(C)(C)C)nnc1-c1ccco1 | 117 |
| CC(C(=O)NC(=O)NC1CCCCC1)N1CCN(c2ccccn2)CC1 (configuration not stated) | 134 |
| Cc1c(C(=O)NCc2ccoc2)oc2ccc3c(c12)C(=O)CC(C)(C)O3 | 103 |
| COc1nc(Oc2ccc(=O)n(C)n2)nc(N(C)C)n1 | 110 |
| Cc1nc(-c2cccc(-c3noc(C)n3)c2)no1 | 108 |
| Cc1nc2c(=O)oc3ccccc3c2n1-c1ccccc1 | 30.7 |
| O=C(c1cn(-c2ccccc2)nc1-c1cccs1)N1CCN(c2ccccn2)CC1 | 150 |
| O=C(Nc1ccc2oc(-c3ccncc3)nc2c1)c1cccs1 | 113 |
| O=C(Nc1ccc2c(c1)C(=O)N(C1CCCCC1)C2=O)C1CCCO1 (configuration not stated) | 43.2 |
| CCn1c(C(Cc2ccccc2)NC(=O)COC)nc2ccccc21 (configuration not stated) | 110 |
| CCOc1ccc2[nH]c(O)c(NC(C)=O)c2c1 | 101 |
| COc1ccc(C2(C(=O)Nc3c(C)n(C)n(-c4ccccc4)c3=O)CCCC2)cc1OC | 104 |
| CC(C)OC(=O)CSc1nnc(-c2cccnc2)n1Cc1ccccc1 | 98.8 |
| C=CCn1c(Cc2csc(N)n2)nnc1SCC(=O)OCC | 77.4 |
| CS(=O)(=O)N1CCN(C(=O)c2ccc(-c3ccccc3)cc2)CC1 | 128 |
| Fc1cccc2sc(Nc3nnc(-c4ccco4)o3)nc12 | 94.5 |
| Cn1c(COc2ccccc2)nnc1SCC(=O)Nc1ccc(N2CCOCC2)c(Cl)c1 | 102 |
| CC1Cc2ccccc2N1C(=O)c1cnsn1 (configuration not stated) | 111 |

Provenance of the data: PubChem BioAssay
